target: ALX4 R215A (mouse cDNA (human protein sequence …, UniProt O35137 158-291, R203A)); assay: ITC
Sequence (O35137 158-291 R203A): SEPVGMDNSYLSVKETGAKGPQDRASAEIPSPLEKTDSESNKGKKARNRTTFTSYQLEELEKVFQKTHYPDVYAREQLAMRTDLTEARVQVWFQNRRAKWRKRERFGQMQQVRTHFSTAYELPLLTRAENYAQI
measure name: pKd
Entry type: numeric. Quantity: pKd, the -log10 of concentration in molar units.

Measured pKd of 14-mer monomer site ITC duplex (dsDNA) DNA 1: CGCTAATTAGCTCG DNA 2: CGAGCTAATTAGCG : 7.52
